For each record, write down the corresponding inhibition at 1 µM.
# system-tested: human hNET (Homo sapiens)
# Construct: expressed in transfected cells; host or cells: MDCK (MDCK-Net6)
# protocol: Norepinephrine (NE) uptake assay in MDCK-Net6 cells
# Assay type: cell-based
# particulars: at 1 μM; [3H]NE uptake, MDCK-Net6 cells; read-out: hNET Percentage inhibition at 1 μM
Structures can show the parent of a compound that is named as a salt.
Reply with the number, then its unit.

CNC[C@@H](O)[C@H](c1ccccc1)n1ccc2cc(NC(=O)C3CCCCC3)ccc21 [Example 77, hydrochloride] : 60%
CNC[C@@H](O)[C@H](c1ccccc1)n1ccc2ccc(Oc3ccccc3)cc21 [Example 80, hydrochloride] : 12%
O[C@H](CN1CCCCC1)[C@H](c1ccccc1)n1ccc2cc(OCc3ccccc3)ccc21 [Example 90, hydrochloride] : 12%
CCNC[C@@H](O)[C@H](c1ccccc1)n1ccc2cc(OCc3ccccc3)ccc21 [Example 83, hydrochloride] : 43%
CC(C)NC[C@@H](O)[C@H](c1ccccc1)N1C(=O)C2(CCCCC2)c2ccc(F)cc21 [Example 97, hydrochloride] : 0%
CNC[C@@H](O)[C@H](c1cccc(F)c1)n1ccc2cc(C)ncc21 [Example 48, hydrochloride] : 51%

The following compounds each have a reported value; give each one's inhibition at 1 µM.
1. CNC[C@@H](O)[C@H](c1ccccc1)n1ccc2ccc(OCc3ccccc3)cc21 [Example 3, hydrochloride]
2. CNC[C@@H](O)[C@H](c1ccccc1)n1ccc2cc(Oc3ccccc3)ccc21 [Example 19, hydrochloride]
3. CNC[C@@H](O)[C@H](c1cccc(F)c1)N1CCN(Cc2ccccc2)c2ccccc21 [Example 53, hydrochloride]

1: 2%; 2: 27%; 3: 49%

* * *

# system-tested: human hNET (Homo sapiens)
# Construct: expressed in transfected cells; host or cells: MDCK (MDCK-Net6)
# protocol: Norepinephrine (NE) uptake assay in MDCK-Net6 cells
# Format: cell-based
# particulars: at 1 μM; [3H]NE uptake, MDCK-Net6 cells; read-out: hNET Percentage inhibition at 1 μM
Where a name gives a salt, the structure may show the parent alone.
measured-quantity: inhibition at 1 µM (%)
Give bare numbers, in %.

CCCNC[C@@H](O)[C@H](c1ccccc1)N1C(=O)C2(CCCCC2)c2ccc(F)cc21 [Example 98, hydrochloride] : 0
CN(C)C[C@@H](O)[C@H](c1ccccc1)N1C(=O)C2(CCCCC2)c2cc(F)ccc21 [Example 103, hydrochloride] : 19
CNC[C@@H](O)[C@H](c1cccc(F)c1)n1ccc2cc(OC)ncc21 [Example 46, hydrochloride] : 46

Then there is this compound:
Complete the entry with inhibition at 1 µM for CCNC[C@@H](O)[C@H](c1ccccc1)N1C(=O)C2(CCCCC2)c2ccc(F)cc21 [Example 96, hydrochloride]
48

* * *

# system-tested: human hNET (Homo sapiens, UniProt P23975)
# Sequence (P23975 whole entry): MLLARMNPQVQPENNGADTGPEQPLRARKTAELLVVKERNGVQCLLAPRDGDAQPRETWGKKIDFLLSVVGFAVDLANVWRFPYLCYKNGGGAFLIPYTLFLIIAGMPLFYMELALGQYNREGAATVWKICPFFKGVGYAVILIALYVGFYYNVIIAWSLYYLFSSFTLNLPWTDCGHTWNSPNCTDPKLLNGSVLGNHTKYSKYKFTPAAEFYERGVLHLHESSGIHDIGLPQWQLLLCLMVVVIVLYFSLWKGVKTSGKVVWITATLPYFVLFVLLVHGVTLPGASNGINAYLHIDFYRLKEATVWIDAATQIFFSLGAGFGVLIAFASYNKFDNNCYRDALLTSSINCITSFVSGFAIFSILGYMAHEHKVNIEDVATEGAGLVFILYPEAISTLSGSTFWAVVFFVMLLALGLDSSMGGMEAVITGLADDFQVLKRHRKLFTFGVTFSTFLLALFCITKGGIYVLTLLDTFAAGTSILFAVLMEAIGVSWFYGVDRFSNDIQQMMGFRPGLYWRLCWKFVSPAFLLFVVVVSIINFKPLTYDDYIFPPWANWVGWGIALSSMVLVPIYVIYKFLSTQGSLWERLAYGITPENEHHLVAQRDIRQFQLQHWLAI
# protocol: Norepinephrine (NE) uptake assay in MDCK-Net6 cells
# particulars: [3H]NE uptake, MDCK-Net6 cells stably transfected with hNET
Structures can show the parent of a compound that is named as a salt.
measured-quantity: pEC50
Give bare numbers, as −log10 of the molar value.

CNC[C@@H](O)[C@H](c1ccccc1)n1ccc2c(Oc3ccccc3)cccc21 [Example 20, hydrochloride] : 6.64

The following compounds each have a reported value; give each one's pEC50.
1. CNC[C@@H](O)[C@H](c1ccccc1)n1ccc2cc(OCCc3ccccc3)ccc21 [Example 18, hydrochloride]
2. CNC[C@@H](O)[C@H](c1cc(F)cc(Cl)c1)N1CC(C)(C)c2cccc(F)c21 [Example 114, hydrochloride]

1: 6.66; 2: 6.78

The following compounds each have a reported value; give each one's pEC50.
1. CNC[C@@H](O)[C@H](c1ccccc1)n1ccc2ccc(-c3ccccc3)cc21 [Example 22, hydrochloride]
2. CNC[C@@H](O)[C@H](c1cccc(F)c1)n1ccc2ccnc(C)c21 [Example 50, hydrochloride]
3. CNC[C@@H](O)[C@H](c1cccc(F)c1)N1C(=O)C2(CCCC2)c2cccc(F)c21 [Example 117, hydrochloride]
4. CNC[C@@H](O)[C@H](c1ccccc1)n1ccc2cc(OCc3ccccc3C)ccc21 [Example 14, hydrochloride]

7.46
6.28
8.70
6.96
